# TEST: Steady state plasma pharmacokinetics (4 mg/kg i.p. once daily), NCA
# Assay type: in vivo, Sprague-Dawley rats
# EXPERIMENTAL_PARAMETERS: female, Sprague-Dawley, rat, plasma, ip, 4 mg/kg, female rats, steady state, 4 mg/kg i.p. daily for 11 days; read-out: AUC 0–24, plasma total
RECORDED_METRIC: AUC(0-t) (µg·h/mL)
Give bare numbers, in µg·h/mL.

INPUT: I have this compound here, N#Cc1ccc(C(c2ccc(C#N)cc2)n2cncn2)cc1 , and I need its recorded AUC(0-t).
OUTPUT: 103

---

# TEST: Steady state brain ECF pharmacokinetics by intracerebral microdialysis
# EXPERIMENTAL_PARAMETERS: male, Sprague-Dawley, rat, brain ECF (striatal microdialysate) / unbound plasma, intraperitoneal, 4 mg/kg, Kpuu (AUC0-12 brain ECF / plasma unbound), male rats, steady state, 5 days
RECORDED_METRIC: Kp uu at 120 h
One number for each entry.

INPUT: I have this molecule here, N#Cc1ccc(C(c2ccc(C#N)cc2)n2cncn2)cc1 , and I need its recorded Kp uu at 120 h.
OUTPUT: 0.9
